// provenance: paper PMC10569036

For each entry below, report its log partition chloroform / HPLC water, unbuffered, traces of methanol / DMSO value.
- assayProtocol: shake flask on a mixture of 185; loss from the water phase only; LC-Orbitrap peak areas
- protocolConditions: room
Entry rule: numbers only, all in log10.

Q. # return recorded log partition chloroform / HPLC water, unbuffered, traces of methanol / DMSO for entry Oc1c(Cl)ccc(Cl)c1Cl
A. 0.7523

Q. # return recorded log partition chloroform / HPLC water, unbuffered, traces of methanol / DMSO for entry c1coc(-c2nc3ccccc3[nH]2)c1
A. 0.9478

Q. # return recorded log partition chloroform / HPLC water, unbuffered, traces of methanol / DMSO for entry CN(C)c1ccc(Cc2ccc(N(C)C)cc2)cc1
A. 3.139

Q. # return recorded log partition chloroform / HPLC water, unbuffered, traces of methanol / DMSO for entry Cc1ccc(N)c(S(=O)(=O)O)c1
A. 1.369

---

- assayProtocol: shake flask on a mixture of 185; loss from the water phase only; LC-Orbitrap peak areas
- protocolConditions: room
resultType: log partition cyclohexane / HPLC water, unbuffered, traces of methanol / DMSO (log10)
Entry rule: numbers only, all in log10.

Q. # return recorded log partition cyclohexane / HPLC water, unbuffered, traces of methanol / DMSO for entry O=C(OC1CCCCC1)c1ccccc1C(=O)OC1CCCCC1
A. -0.9365

Q. # return recorded log partition cyclohexane / HPLC water, unbuffered, traces of methanol / DMSO for entry CN1COCN(Cc2cnc(Cl)s2)C1=N[N+](=O)[O-]
A. -1.812

Q. # return recorded log partition cyclohexane / HPLC water, unbuffered, traces of methanol / DMSO for entry CCCC1COC(Cn2cncn2)(c2ccc(Cl)cc2Cl)O1 (stereo not drawn)
A. 0.2977

---

- assayProtocol: shake flask on a mixture of 185; loss from the water phase only; LC-Orbitrap peak areas
- protocolConditions: room
resultType: log partition toluene / HPLC water, unbuffered, traces of methanol / DMSO (log10)
Entry rule: numbers only, all in log10.

Q. # return recorded log partition toluene / HPLC water, unbuffered, traces of methanol / DMSO for entry CCCOC(=O)c1ccc(C(=O)OCCC)nc1
A. 1.5

Q. # return recorded log partition toluene / HPLC water, unbuffered, traces of methanol / DMSO for entry CN(C)c1ccc(Cc2ccc(N(C)C)cc2)cc1
A. 1.554

Q. # return recorded log partition toluene / HPLC water, unbuffered, traces of methanol / DMSO for entry CCCCC(CC)C(=O)OCCOCCOCCOCCOC(=O)C(CC)CCCC (centres unmarked)
A. 0.3117

Q. # return recorded log partition toluene / HPLC water, unbuffered, traces of methanol / DMSO for entry Cc1cc(SCc2sc(-c3ccc(C(F)(F)F)c(F)c3)nc2C)ccc1OCC(=O)O
A. -0.01784

Q. # return recorded log partition toluene / HPLC water, unbuffered, traces of methanol / DMSO for entry O=C(O)c1ccccc1C(c1ccc(O)cc1)c1ccc(O)cc1
A. -0.7201

Q. # return recorded log partition toluene / HPLC water, unbuffered, traces of methanol / DMSO for entry CCCCNC(=S)NCCCC
A. 0.4176

Q. # return recorded log partition toluene / HPLC water, unbuffered, traces of methanol / DMSO for entry CCCCCCCCCCCC(=O)OCC(O)CO (centres unmarked)
A. -1.18

Q. # return recorded log partition toluene / HPLC water, unbuffered, traces of methanol / DMSO for entry NC(=O)Nc1ccc(Cl)cc1
A. -1.194

Q. # return recorded log partition toluene / HPLC water, unbuffered, traces of methanol / DMSO for entry Cc1ccc(N)c(S(=O)(=O)O)c1
A. 0.5377

Q. # return recorded log partition toluene / HPLC water, unbuffered, traces of methanol / DMSO for entry CCC(C)(CC)c1cc(NC(=O)c2c(OC)cccc2OC)on1
A. 2.848

Q. # return recorded log partition toluene / HPLC water, unbuffered, traces of methanol / DMSO for entry CCCCNS(=O)(=O)c1ccc(C)cc1
A. 1.122

---

- assayProtocol: shake flask on a mixture of 185; loss from the water phase only; LC-Orbitrap peak areas
- protocolConditions: room
For each entry below, report its log partition dichloromethane / HPLC water, unbuffered, traces of methanol / DMSO value.
Entry rule: numbers only, all in log10.

Q. # return recorded log partition dichloromethane / HPLC water, unbuffered, traces of methanol / DMSO for entry CC(C)C1(C)N=C(c2nc3ccccc3cc2C(=O)O)NC1=O (centres unmarked)
A. -0.4847

Q. # return recorded log partition dichloromethane / HPLC water, unbuffered, traces of methanol / DMSO for entry CCCC1COC(Cn2cncn2)(c2ccc(Cl)cc2Cl)O1 (centres unmarked)
A. 0.2897

Q. # return recorded log partition dichloromethane / HPLC water, unbuffered, traces of methanol / DMSO for entry CCc1nn(C)c(C(=O)NCc2ccc(C(C)(C)C)cc2)c1Cl
A. 3.08

Q. # return recorded log partition dichloromethane / HPLC water, unbuffered, traces of methanol / DMSO for entry Cc1cc2c3c(c1)C(c1ccccc1)=N[C@@H](NC(=O)c1ccncc1)C(=O)N3CC2
A. 2.402

Q. # return recorded log partition dichloromethane / HPLC water, unbuffered, traces of methanol / DMSO for entry CC(=O)CCc1ccc(OC(C)=O)cc1
A. 1.412

Q. # return recorded log partition dichloromethane / HPLC water, unbuffered, traces of methanol / DMSO for entry O=C(OC1CCCCC1)c1ccccc1C(=O)OC1CCCCC1
A. 0.1411

Q. # return recorded log partition dichloromethane / HPLC water, unbuffered, traces of methanol / DMSO for entry CC(=O)c1ccc2ccccc2c1
A. -0.6955

Q. # return recorded log partition dichloromethane / HPLC water, unbuffered, traces of methanol / DMSO for entry CN(C)c1ccc(Cc2ccc(N(C)C)cc2)cc1
A. 2.123

Q. # return recorded log partition dichloromethane / HPLC water, unbuffered, traces of methanol / DMSO for entry O=C(O)CCN(C1(C(=O)NO)CCCC1)S(=O)(=O)c1ccc(Oc2ccc(F)cc2)cc1
A. 0.4348

Q. # return recorded log partition dichloromethane / HPLC water, unbuffered, traces of methanol / DMSO for entry Cc1cc(O)cc(C)c1Cl
A. 0.8657

Q. # return recorded log partition dichloromethane / HPLC water, unbuffered, traces of methanol / DMSO for entry CC(C)(C#N)Nc1nc(Cl)nc(NC2CC2)n1
A. 2.268

Q. # return recorded log partition dichloromethane / HPLC water, unbuffered, traces of methanol / DMSO for entry CCCCNS(=O)(=O)c1ccccc1
A. -0.02662

Q. # return recorded log partition dichloromethane / HPLC water, unbuffered, traces of methanol / DMSO for entry CN(C1CCCCC1)S(=O)(=O)c1ccccc1N
A. 1.312

Q. # return recorded log partition dichloromethane / HPLC water, unbuffered, traces of methanol / DMSO for entry Cc1oncc1C(=O)Nc1ccc(C(F)(F)F)cc1
A. 1.347

---

- assayProtocol: shake flask on a mixture of 185; loss from the water phase only; LC-QTOF peak areas
- protocolConditions: room
For each entry below, report its log partition toluene / HPLC water, unbuffered, traces of methanol / DMSO value.
Entry rule: numbers only, all in log10.

Q. # return recorded log partition toluene / HPLC water, unbuffered, traces of methanol / DMSO for entry Oc1c(Cl)cc(Cl)c(Cl)c1Cc1c(O)c(Cl)cc(Cl)c1Cl
A. 2.305

Q. # return recorded log partition toluene / HPLC water, unbuffered, traces of methanol / DMSO for entry CO/N=C(/C1=NOCCO1)c1ccccc1Oc1ncnc(Oc2ccccc2Cl)c1F
A. 2.389

Q. # return recorded log partition toluene / HPLC water, unbuffered, traces of methanol / DMSO for entry CCc1ccc(C(=O)NN(C(=O)c2cc(C)cc(C)c2)C(C)(C)C)cc1
A. 1.989

Q. # return recorded log partition toluene / HPLC water, unbuffered, traces of methanol / DMSO for entry Cc1cc2c3c(c1)C(c1ccccc1)=N[C@@H](NC(=O)c1ccncc1)C(=O)N3CC2
A. 2.127

Q. # return recorded log partition toluene / HPLC water, unbuffered, traces of methanol / DMSO for entry CCC(C)(CC)c1cc(NC(=O)c2c(OC)cccc2OC)on1
A. 2.04

Q. # return recorded log partition toluene / HPLC water, unbuffered, traces of methanol / DMSO for entry CC(C)C1(C)N=C(c2nc3ccccc3cc2C(=O)O)NC1=O (stereo not shown)
A. -0.5162

Q. # return recorded log partition toluene / HPLC water, unbuffered, traces of methanol / DMSO for entry O=S(=O)(O)C(F)(F)F
A. -0.8212

---

- assayProtocol: shake flask on a mixture of 185; loss from the water phase only; LC-QTOF peak areas
- protocolConditions: room
For each entry below, report its log partition chloroform / HPLC water, unbuffered, traces of methanol / DMSO value.
Entry rule: numbers only, all in log10.

Q. # return recorded log partition chloroform / HPLC water, unbuffered, traces of methanol / DMSO for entry C#CC(C)(C)NC(=O)c1cc(Cl)cc(Cl)c1
A. 2.908

Q. # return recorded log partition chloroform / HPLC water, unbuffered, traces of methanol / DMSO for entry NC(=O)Nc1ccc(Cl)cc1
A. -0.1363

Q. # return recorded log partition chloroform / HPLC water, unbuffered, traces of methanol / DMSO for entry Cc1cc(C)nc(NS(=O)(=O)c2ccc(N)cc2)n1
A. -0.2658
